- Test system: XIP peptide (Xip251-270)
- assay.details: small-molecule binders of XIP peptide, primary screen, biochemical, small-molecule microarray, fluorescence 635/667 nm, 0.5 µg/mL protein (AID 1183)
- reported.conditions: small-molecule microarray binding, fluorescence 635 nm; higher = more signal
# composite z-score annotations

As a guide, the following entries are already answered.
INSERT INTO assay_data (compound, property_measured, value_measured) VALUES
  ('CO[C@H]1O[C@H](CO)[C@@H](OC(=O)CCc2ccccc2)[C@@H]2OC(=O)[C@@H](Cc3ccc4ccccc4c3)C/C=C/C[C@H](Cc3ccc4ccccc4c3)C(=O)O[C@@H]12', 'composite z-score', 0.448),
  ('CC[C@H]1C2=C3C(CC[C@H]4C(OCc5ccc(F)cc5C(F)(F)F)OC[C@](C)([C@@H]34)N(C(=O)OC(C)(C)C)C2)C(COC(C)=O)C1COC(C)=O (stereo not given in full)', 'composite z-score', 0.633),
  ('COCCOC(=O)N1C(=O)[C@@]2(c3cc(C#CCC(C(=O)OC)C(=O)OC)ccc31)[C@H](c1ccc(O)cc1)N1[C@H](c3ccccc3)[C@H](c3ccccc3)OC(=O)[C@H]1[C@@H]2C(=O)N1CCc2cc(OC)c(OC)cc2C1', 'composite z-score', 0.803);

Request: Entry under review: COc1ccc([Si](C)(C)[C@@H]2[C@@H](CC(=O)N3CCC[C@H]3CO)O[C@]3(C(=O)N(Cc4cccc(N5C(=O)c6cccc7cccc5c67)c4)c4ccccc43)[C@H]2C)cc1 . Reported composite z-score?
Result: 0.703

Request: What measured composite z-score goes with Cc1ccc(S[C@]2(C(=O)NCc3ccccc3)CC(=O)N(Cc3ccccc3Cl)[C@@H]2c2ccc(CO)cc2)cc1 ?
Result: 0.825

* * *

- assay.details: E. coli acrAB mutant growth effects, primary screen, E. coli filamentation inducers, strain DRC39, OD650, 24 h (AID 1178);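 also: growth measured as culture turbidity by optical density at 650 nm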
- reported.conditions: higher = more signal, called active from +8 up or from −8 down
property.measured: z-score
Answer with the value's number alone.

INSERT INTO assay_data (molecule, property_measured, value_measured) VALUES
  ('C=CC[C@H](O)c1ccc(O)c(F)c1', 'z-score', 0.117);

Request: Entry CC(C)C[C@@H]1NC(=O)[C@@H]2C[C@H](C(=O)NCCCCCNC(=O)CS)[C@H](c3ccc(O)cc3)N2C1=O : reported z-score = ?
Result: -0.692

Request: Consider the molecule shown here: O=C1O[C@H](c2ccccc2)[C@H](c2ccccc2)N2[C@H]1[C@@H](C(=O)O)[C@]1(C(=O)Nc3ccccc31)[C@H]2c1ccc(OCCO)cc1 What is its recorded z-score?
Result: -0.545

Request: For the molecule shown here, COc1ccc(C#Cc2ccc3c(c2)[C@]2(C(=O)N3)[C@H](c3ccccc3OCCO)N3[C@H](c4ccccc4)[C@H](c4ccccc4)OC(=O)[C@H]3[C@@H]2C(=O)NC[C@H](O)c2ccccc2)cc1 , give the reported z-score.
Result: 0.158

Request: If you can, please state the reported z-score value of C=CCOC(=O)[C@H]1[C@@H]2C(=O)O[C@@H](c3ccccc3)[C@@H](c3ccccc3)N2[C@@H](c2ccc(OCCOC(=O)[C@H]3C[C@H]4C(=O)NCC(=O)N4[C@H]3c3cccc(OCCO)c3)cc2)[C@]12C(=O)Nc1ccc(I)cc12 .
Result: -0.274

Request: Recorded z-score for COc1cc(Cc2cc3c(c(CCc4ccccc4)n2)[Si](C(C)C)(C(C)C)O[C@H]3c2ccccc2)cc(OC)c1OC , please?
Result: -0.264

Request: Fill blank: measured z-score of the molecule O=C1OCC=C[C@H]2OC34C=CCN(Cn5nnc6ccccc65)C(=O)[C@H]3N(CCO)C(=O)[C@@H]4[C@@H]12 (stereo partly drawn) is ____.
Result: 0.0034

Request: # lookup: z-score of C=CCNC(=O)[C@H]1[C@@H]2C(=O)O[C@@H](c3ccccc3)[C@@H](c3ccccc3)N2[C@@H](c2ccc(O)cc2)[C@]12C(=O)N(C(=O)OCCOC)c1ccc(C#Cc3ccc(OC)cc3)cc12
Result: -1.2

Request: Looking for the measured z-score of COCCOC(=O)N1C(=O)[C@@]2(c3cc(C#CCC(C(=O)OC)C(=O)OC)ccc31)[C@H](C(=O)N1CCc3cc(OC)c(OC)cc3C1)[C@H]1C(=O)O[C@H](c3ccccc3)[C@H](c3ccccc3)N1[C@@H]2c1ccccc1OCCO , can you help?
Result: 0.414

Request: Need z-score of COC(=O)[C@H]1N=C(c2ccc(OCCCO)cc2)O[C@H]1c1ccccc1N=[N+]=[N-] , thanks.
Result: 0.584

Request: # input molecule: CCCCN1CC=CC23O[C@@H]4C=CCCOC(=O)C4[C@H]2C(=O)N(CCO)[C@@H]3C1=O (stereo partly drawn) ; wanted: its z-score
Result: -0.323

Request: Tell me the measured z-score of CCCCCN1CC=CC23O[C@@H]4/C=C\CCCOC(=O)C4[C@H]2C(=O)N(CCO)[C@@H]3C1=O (stereo partly drawn) , please.
Result: 0.859

Request: I'd like to know its z-score. The molecule in question is COCCOC(=O)N1C(=O)[C@@]2(c3cc(C#CC4(O)CCCCCC4)ccc31)[C@H](C(N)=O)[C@H]1C(=O)O[C@H](c3ccccc3)[C@H](c3ccccc3)N1[C@@H]2c1ccc(OCCO)cc1
Result: 0.141

* * *

- target.entity: Dickkopf-related protein 1 (Homo sapiens)
- assay.details: DKK1 binders on small-molecule microarrays, primary screen, biochemical, small-molecule microarray, 635 nm fluorescence scan (AID 1106);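 also: score merges emission near 667 nm with signal to noise over three replicate slides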
- reported.conditions: DKK1 binding, higher = more signal
property.measured: composite z-score

Request: Any idea what its composite z-score is? The compound is CN1C2C=C(c3ccc(CO)cc3)C(C3C(=O)N(C(N)=O)C(=O)C32)C1C1CC1 (centres undefined)
Result: -0.188

Request: Reported composite z-score for CO[C@H]1O[C@H](CO)[C@@H](OC(=O)Nc2ccccc2)[C@@H]2OC(=O)[C@@H](Cc3ccccc3)C/C=C/C[C@H](Cc3ccccc3)C(=O)O[C@@H]12 : what is it?
Result: 0.206

Request: Would you mind telling me what composite z-score value was observed for C=CCNC(=O)[C@H]1[C@@H]2C(=O)O[C@@H](c3ccccc3)[C@@H](c3ccccc3)N2[C@@H](c2ccc(O)cc2)[C@]12C(=O)Nc1ccc(C#CCC(C(=O)OC)C(=O)OC)cc12 ?
Result: 0.415

Request: Request the reported composite z-score associated with CCOC(=O)C1=CCC(c2cccn2C(=O)OC(C)(C)C)N(S(=O)(=O)c2ccc(C)cc2)C1 (centres undefined)
Result: 0.0815

Request: Param item = CCOC(=O)C=C1C[C@@H](c2cccc([N+](=O)[O-])c2)O[C@@H](c2cccc([N+](=O)[O-])c2)O1 ; retrieve measured composite z-score.
Result: 0.514

Request: Give its composite z-score value. Item: CCOC(=O)C1=CCC(c2ccncc2)N(S(=O)(=O)c2ccc(C)cc2)C1 (centres undefined)
Result: 0.332

Request: // returns reported composite z-score for input C=C(COC)/C(=C/C[C@@H](OC(C)=O)c1cccc(OCCO)c1)c1cnc2ccccc2c1
Result: 1.02

Request: Field request: composite z-score | item: C=C(CCCC)/C(=C/C[C@@H](OC(C)=O)c1ccc(OCCO)cc1)c1cc(C(=O)OC)ccc1OC
Result: -0.348

Request: Form field: reported composite z-score of CC(C)Cc1ccc(CN2CC[C@@H](NC(=O)c3ccccc3)C2)cc1
Result: -0.0332

Request: Can you share its composite z-score? I mean this compound: O=C(NCCN1CCOCC1)[C@@H]1c2ccccc2C(=O)N(CC23CC4CC(CC(C4)C2)C3)[C@H]1c1ccc(CO)cc1
Result: 0.0037

Request: composite z-score lookup needed for C=CC[C@]1(C(=O)NCCN2CCOCC2)N=C(c2ccc(OCCCO)cc2)O[C@H]1c1ccccc1 , thanks.
Result: 0.418

Request: // composite z-score lookup, key: COc1cc(CO)cc(I)c1O[C@H]1C=C(C(=O)NCCO)C[C@@H](N(CCN2CCOCC2)C(=O)C2CCCO2)[C@@H]1O (some centres undefined)
Result: 0.516

Request: Requested read-out: composite z-score. Entry: COC(=O)[C@@]1(Cc2ccc(F)cc2)[C@H]2c3cc(C(=O)N4CCCC4)n(Cc4ccc(OC(F)(F)F)cc4)c3C[C@H]2CN1C(=O)c1ccccc1
Result: -0.559

Request: So what's the measured composite z-score for this one? C=CCNC(=O)[C@@H]1[C@H]2C(=O)O[C@H](c3ccccc3)[C@H](c3ccccc3)N2[C@H](c2ccc(O)cc2)[C@@]12C(=O)N(C(=O)OCCOC)c1ccc(C#CCC(C(=O)OC)C(=O)OC)cc12
Result: 0.493

Request: Returns the measured composite z-score for the input compound. Input: COc1cc2c(cc1OC)CN(C(=O)[C@@H]1[C@H]3C(=O)O[C@H](c4ccccc4)[C@H](c4ccccc4)N3[C@H](c3ccc(O)cc3)[C@@]13C(=O)Nc1ccc(C#CC4=CCCCC4)cc13)CC2
Result: 0.453
